Assay Name: apparent dissociation constant of putative Ca*ligand complex from potentiometric Ca^2+ activity
Assay type: physicochemical
Study Conditions: 20 mM Hepes, pH 7.0 to 7.6, dilutions with 0.15 mM of NaCl, average of n determinations, read-out: kd ± S.D.
Where a name gives a salt, the structure may show the parent alone.
Measured Metric: Kd (mM)

Field: example entries. Status: answers known.
| Compound | Observed Value |
| --- | --- |
| O=C(O)/C=C(\CC(=O)O)C(=O)O [trans-aconitate, trans-aconitic acid] | 29 |
| O=C(O)CNCC(=O)O [iminodiacetate] | 29 |
| O=C(O)CC(CC(=O)O)C(=O)O [tricarballylate, tricarballylic acid] | 22 |
| O=C(O)c1ccccc1C(=O)O [phthalate, phthalic acid] | 26 |

A: Nc1ncnc2nc[nH]c12 [adenine]
B: O=C(O)CC(O)(CC(=O)O)C(=O)O [citrate, Tri-sodium citrate]
# input Lab notebook, comparison: A versus B , higher Kd goes to which? Give the label under which the chosen entry appears.
# output A
